All values here come from patent US8399493B2.

Give melting point for every item shown.
Numbers only, in °C.

Worked set:
CNC(=O)COc1ccc(-c2ccc(=O)n(Cc3ccc(Cl)cc3F)c2)cc1 [6-52] | 162
O=c1ccc(-c2ccc(COCc3ccccc3)cc2)cn1Cc1ccc(Cl)cc1 [2-27] | 101
COc1ccc(-c2ccc(=O)n(Cc3nc4cc(F)ccc4o3)c2)cc1 [4-51] | 115
CC(=O)NCCOCc1ccc(-c2ccc(=O)n(Cc3ccc(Cl)cc3)c2)cc1 [2-42] | 152

From here, focus on the item given below.
Entry NCc1ccc(-c2ccc(=O)n(Cc3ccc(Cl)cc3F)c2)cc1 [6-24] needs its melting point filled in; supply it.
139
